target: T1, human SIRPγ stably expressed on 293F cells (human, UniProt Q9P1W8 29-387); assay: FACS, 293F-human SIRPγ cells
T1 construct: whole, on cells
T1 sequence (Q9P1W8 29-387): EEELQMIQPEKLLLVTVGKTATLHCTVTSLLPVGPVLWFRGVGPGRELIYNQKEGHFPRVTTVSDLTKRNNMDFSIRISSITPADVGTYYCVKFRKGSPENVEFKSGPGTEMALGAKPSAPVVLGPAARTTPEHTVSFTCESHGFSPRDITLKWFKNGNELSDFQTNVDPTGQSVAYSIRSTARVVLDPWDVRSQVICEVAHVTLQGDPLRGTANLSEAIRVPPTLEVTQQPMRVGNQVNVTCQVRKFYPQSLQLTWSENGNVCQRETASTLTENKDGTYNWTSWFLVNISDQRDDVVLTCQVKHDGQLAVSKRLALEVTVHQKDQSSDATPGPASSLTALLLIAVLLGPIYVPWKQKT
# note: exactly 0.5 nM is not below, so it is FALSE; use TRUE for EC50 strictly under it

Solved entries (count: 4):
INSERT INTO results (binder, class) VALUES
  ('025c (antibody, V domains shown, also called chimeric antibody 025c; parental antibody of 025c) VH: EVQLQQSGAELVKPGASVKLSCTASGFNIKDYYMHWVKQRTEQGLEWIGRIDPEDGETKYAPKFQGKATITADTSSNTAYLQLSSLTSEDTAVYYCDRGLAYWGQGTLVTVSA VL: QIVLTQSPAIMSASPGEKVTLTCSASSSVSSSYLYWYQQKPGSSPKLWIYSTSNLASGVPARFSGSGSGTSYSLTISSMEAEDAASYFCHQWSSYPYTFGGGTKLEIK', 'TRUE'),
  ('015c (antibody, V domains shown, also called chimeric antibody 015c) VH: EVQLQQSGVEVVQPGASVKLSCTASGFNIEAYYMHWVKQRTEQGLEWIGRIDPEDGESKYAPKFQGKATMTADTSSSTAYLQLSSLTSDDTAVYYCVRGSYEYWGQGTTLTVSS VL: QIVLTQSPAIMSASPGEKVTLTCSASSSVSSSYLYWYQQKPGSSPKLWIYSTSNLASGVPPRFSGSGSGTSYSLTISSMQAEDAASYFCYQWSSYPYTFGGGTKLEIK', 'TRUE'),
  ('hu1H9G4 (antibody, V domains shown) VH: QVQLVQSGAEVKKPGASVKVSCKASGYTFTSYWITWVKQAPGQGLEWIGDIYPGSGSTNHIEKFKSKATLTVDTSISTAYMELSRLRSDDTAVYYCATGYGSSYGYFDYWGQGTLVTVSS VL: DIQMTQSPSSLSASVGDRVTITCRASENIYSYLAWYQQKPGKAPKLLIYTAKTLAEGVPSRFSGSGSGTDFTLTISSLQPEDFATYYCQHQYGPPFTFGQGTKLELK', 'FALSE'),
  ('059c (antibody, V domains shown, also called chimeric antibody 059c) VH: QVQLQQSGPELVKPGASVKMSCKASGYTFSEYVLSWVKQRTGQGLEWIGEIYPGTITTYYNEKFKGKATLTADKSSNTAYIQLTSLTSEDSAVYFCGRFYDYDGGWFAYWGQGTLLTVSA VL: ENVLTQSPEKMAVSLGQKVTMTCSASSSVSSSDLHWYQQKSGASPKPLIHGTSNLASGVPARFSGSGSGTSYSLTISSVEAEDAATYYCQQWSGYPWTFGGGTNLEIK', 'FALSE');

Continue with the binder presented below.
Qu. Below 0.5 nM on EC50? Entry 073c (antibody, V domains shown, also called chimeric antibody 073c) VH: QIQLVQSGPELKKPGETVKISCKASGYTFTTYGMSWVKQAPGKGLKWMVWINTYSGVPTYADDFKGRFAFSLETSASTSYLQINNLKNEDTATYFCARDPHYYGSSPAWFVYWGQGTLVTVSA VL: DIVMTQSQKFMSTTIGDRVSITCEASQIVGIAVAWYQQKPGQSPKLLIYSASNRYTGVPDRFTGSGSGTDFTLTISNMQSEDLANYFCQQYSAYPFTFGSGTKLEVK
Ans. FALSE

// provenance: patent US20250270315A1
